- system.name: SMARCA2 (Homo sapiens, UniProt P51531)
- Sequence (P51531 whole entry): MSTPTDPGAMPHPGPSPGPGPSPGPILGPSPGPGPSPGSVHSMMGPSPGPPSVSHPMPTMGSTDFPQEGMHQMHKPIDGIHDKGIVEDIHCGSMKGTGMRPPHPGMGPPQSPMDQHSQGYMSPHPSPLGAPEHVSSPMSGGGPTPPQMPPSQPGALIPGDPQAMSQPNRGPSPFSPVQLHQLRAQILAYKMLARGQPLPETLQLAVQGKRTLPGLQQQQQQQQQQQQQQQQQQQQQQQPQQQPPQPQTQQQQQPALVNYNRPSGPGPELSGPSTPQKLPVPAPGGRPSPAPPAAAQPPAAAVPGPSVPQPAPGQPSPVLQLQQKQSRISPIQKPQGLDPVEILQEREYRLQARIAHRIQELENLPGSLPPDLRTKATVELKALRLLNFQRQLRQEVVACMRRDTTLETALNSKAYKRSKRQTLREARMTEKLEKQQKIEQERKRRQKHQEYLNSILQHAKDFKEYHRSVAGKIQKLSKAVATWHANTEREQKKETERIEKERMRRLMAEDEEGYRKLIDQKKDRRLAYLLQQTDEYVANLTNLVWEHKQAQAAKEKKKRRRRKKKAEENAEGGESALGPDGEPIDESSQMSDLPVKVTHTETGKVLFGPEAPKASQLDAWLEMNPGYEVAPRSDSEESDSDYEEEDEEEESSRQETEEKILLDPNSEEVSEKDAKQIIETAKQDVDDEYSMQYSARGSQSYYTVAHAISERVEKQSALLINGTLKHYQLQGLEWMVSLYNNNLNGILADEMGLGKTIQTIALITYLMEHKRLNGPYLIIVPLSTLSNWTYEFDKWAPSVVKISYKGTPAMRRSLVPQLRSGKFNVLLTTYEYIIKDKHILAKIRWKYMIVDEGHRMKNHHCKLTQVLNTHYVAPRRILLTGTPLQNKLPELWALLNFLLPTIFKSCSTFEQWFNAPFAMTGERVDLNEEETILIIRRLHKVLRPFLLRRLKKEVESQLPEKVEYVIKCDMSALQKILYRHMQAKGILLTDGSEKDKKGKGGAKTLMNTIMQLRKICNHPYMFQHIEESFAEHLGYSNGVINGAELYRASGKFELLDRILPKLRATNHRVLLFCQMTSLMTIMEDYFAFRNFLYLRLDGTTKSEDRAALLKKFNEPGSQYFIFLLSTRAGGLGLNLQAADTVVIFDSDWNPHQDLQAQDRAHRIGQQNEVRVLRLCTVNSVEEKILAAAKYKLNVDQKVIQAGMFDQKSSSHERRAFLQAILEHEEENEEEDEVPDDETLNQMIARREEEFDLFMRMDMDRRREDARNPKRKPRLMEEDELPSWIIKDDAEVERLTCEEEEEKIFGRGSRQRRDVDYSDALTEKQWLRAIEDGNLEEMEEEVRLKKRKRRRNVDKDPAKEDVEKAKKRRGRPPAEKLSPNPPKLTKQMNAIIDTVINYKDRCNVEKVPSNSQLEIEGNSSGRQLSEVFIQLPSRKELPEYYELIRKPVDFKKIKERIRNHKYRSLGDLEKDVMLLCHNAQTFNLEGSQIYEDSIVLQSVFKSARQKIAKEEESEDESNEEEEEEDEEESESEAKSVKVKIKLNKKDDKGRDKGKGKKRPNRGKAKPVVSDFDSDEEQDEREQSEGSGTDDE
- test.name: MSD SMARCA2 degradation in NCI-H1299 cell line (24 h)
- Format: cell-based
- Design: HC: NCI-H1299 cells treated with DMSO; host or cells: NCI-H1299
- measurement.setup: NCI-H1299 cells, read-out: SMARCA2 MSD H1299 degradation 24 h: External Abs-DC50
Reported DC50 is given for each of the following compounds.

Reference set (4 entries):
Cn1c(=O)n(C2CCC(=O)NC2=O)c2ccc(CN3CCN(Cc4cnc(N5C6CCC5CN(c5cc(-c7ccccc7O)nnc5N)C6)nc4)CC3)cc21 (stereo not drawn) [I-163]: > 1000 nM
Cn1c(=O)n(C2CCC(=O)NC2=O)c2ccc(CCCOCCOCCOCCN3CCN(Cc4ccc(-c5cc(-c6ccccc6O)nnc5N)cc4)CC3)cc21 (stereo not drawn) [I-134]: 100 to 500 nM
Cn1c(=O)n(C2CCC(=O)NC2=O)c2ccc(CNCCCc3cn(Cc4cccc(N5C[C@H]6C[C@@H]5CN6/C=C/C(=O)c5ccccc5O)n4)nn3)cc21 (stereo partly drawn) [I-74]: > 1000 nM
Cn1c(=O)n(C2CCC(=O)NC2=O)c2cccc(CNCCCCCCc3cn(Cc4cccc(N5C[C@H]6C[C@@H]5CN6/C=C/C(=O)c5ccccc5O)n4)nn3)c21 (stereo partly drawn) [I-82]: > 1000 nM

Entry Cn1c(=O)n(C2CCC(=O)NC2=O)c2ccc(CCCOc3cccc(CN4CCN(c5cc(-c6ccccc6O)nnc5N)CC4)c3)cc21 (stereo not drawn) [I-100] , tested on SMARCA2 (Homo sapiens, UniProt P51531), has a reported DC50 of > 1000 nM

Entry Cn1c(=O)n(C2CCC(=O)NC2=O)c2ccc(CCCCCCCCc3cn(Cc4cccc(N5C[C@H]6C[C@@H]5CN6/C=C/C(=O)c5ccccc5O)n4)nn3)cc21 (stereo partly drawn) [I-48] , tested on SMARCA2 (Homo sapiens, UniProt P51531), has a reported DC50 of > 1000 nM

Origin of values: patent US12624044B2
